Task for the reader: assign each of the following binders its reported signal.
- TARGET_OF_ASSAY: T1, integrin αVβ3 (UniProt P06756 31-992; P05106 27-718)
- T1 construct: Coated on the ELISA plate
- TEST: ELISA, integrin coated, anti-MICA-HRP
Answers are plain numbers, in OD.

Use the examples below as a reference point.
soluble MICA generated by pKK40 (loop 5.1 in loop 1) (designed binder) HHHHHHEPHSLRYNLTVLSWDGSVQSGFLTEVHLDGQPFLRCDRQKCRAKPQGQWAEDVLGNKTWDRETRDLTGNGKDLRMTLAHIKDQKEGLHSLQEIRVCEIHEDNSTRSSQHFYYDGELFLSQNLETEEWTMPQSSRAQTLAMNVRNFLKEDAMKTKTHYHAMHADCLQELRRYLKSGVVLRRTVPPMVNVTVTRGDTFTQSVTCRASGFYPWNITLSWRQDGVSLSHDTQQWGDVLPDGNGTYQTWVATRICQGEEQRFTCYMEHSGNHSTHPVPSGK: 0.485
soluble MICA generated by pKK48 (extended loop 3.2sp in loop 3) (designed binder) EPHSLRYNLTVLSWDGSVQSGFLTEVHLDGQPFLRCDRQKCRAKPQGQWAEDVLGNKTWDRETRDLTGNGKDLRMTLAHIKDQKEGLHSLQEIRVCEIHEDNSTRSSQHFYYDGELFLSQNLETKEWTMPQSSRAQTLAMNVRNFLKEDAMKTKTHYHAMHADCLQELRRYLKSGVVLRRTVPPMVNVTRSEASEGNITVTCRASGFYPWNITLSWRQDGVSLSHDTQQWGDVLPDGNGTYQTWVATRISGGSGGGSTSRGDHPRTQSGGSGGGCYMEHSGNHSTHPVPSGK: 0.478
soluble MICA generated by pKK51 (extended loop 5.3sp in loop 3) (designed binder) EPHSLRYNLTVLSWDGSVQSGFLTEVHLDGQPFLRCDRQKCRAKPQGQWAEDVLGNKTWDRETRDLTGNGKDLRMTLAHIKDQKEGLHSLQEIRVCEIHEDNSTRSSQHFYYDGELFLSQNLETKEWTMPQSSRAQTLAMNVRNFLKEDAMKTKTHYHAMHADCLQELRRYLKSGVVLRRTVPPMVNVTRSEASEGNITVTCRASGFYPWNITLSWRQDGVSLSHDTQQWGDVLPDGNGTYQTWVATRISGGSGGGSHLARGDDLTYSGGSGGGCYMEHSGNHSTHPVPSGK: 0.694

For the next question, use this binder.
Provide only the value of recorded signal for soluble MICA generated by pKK45 (extended loop 3.3sp in loop 1) (designed binder) HHHHHHEPHSLRYNLTVLSWDGSVQSGFLTEVHLDGQPFLRCDRQKCRAKPQGQWAEDVLGNKTWDRETRDLTGNGKDLRMTLAHIKDQKEGLHSLQEIRVCEIHEDNSTRSSQHFYYDGELFLSQNLETEEWTMPQSSRAQTLAMNVRNFLKEDAMKTKTHYHAMHADCLQELRRYLKSGVVLRRTVPPMVNVTSGGSGGGSRVPRGDSDLTSGGSGGGVTCRASGFYPWNITLSWRQDGVSLSHDTQQWGDVLPDGNGTYQTWVATRICQGEEQRFTCYMEHSGNHSTHPVPSGK
0.393
